System: PC26
Test: qHTS profiling for inhibitors of Plasmodium falciparum proliferation (AID 504749); note: nearly all actives have a fitted effect of over 60% in size
Conditions: P. falciparum in erythrocytes, SYBR Green DNA, 72 h; series mostly up to 28.7 µM
Inconclusive results are not listed. The source made the active and inactive calls. Calls come from the whole dose curve; as a rule, active = well fitted inhibition curve with a large enough effect; inconclusive = small, poorly fitted or top-dose-only effect; inactive = flat fitted curve, though single readings scatter.
assay metric: outcome

Known outcome results, listed for orientation:
- CCOc1ccc(C(=O)OCCN(CC)CC)cc1: inactive
- CN(C(=O)c1c(O)c2ccccc2n(C)c1=O)c1ccccc1: inactive
- O=C(O)Cc1cn(-c2ccccc2)nc1-c1ccc(Cl)cc1: inactive
- CCCCCC(N)=O: inactive

Next item in the queue.
The molecule listed as O=C(CN1CCNCC1)NC1CCCCC1 has a reported outcome of inactive
